Data credit: BigSolDB 2.1

Conditions: in acetonitrile, 353.15 K
parameter-measured: solubility (mole fraction)
One number for each entry.

Input line: Data request, read-out solubility (mole fraction), for `O=C(O)c1ccc(C(=O)O)o1`
Output line: 0.000341

###

Details: in n-butanol, 358.15 K
parameter-measured: solubility (mole fraction)
Give bare numbers.

Input line: Data request, read-out solubility (mole fraction), for `O=C(O)c1ccc(C(=O)O)o1`
Output line: 0.0082

###

Conditions: in MIBK, 353.15 K
parameter-measured: solubility (mole fraction)
Numbers only.

Input line: Data request, read-out solubility (mole fraction), for `O=C(O)c1ccc(C(=O)O)o1`
Output line: 0.000666
